These measurements were taken from paper PMC6331934.

Hi there, I'd appreciate the recorded Papp B→A at 90 min, 50 μM for every entry that follows.
experiment: Bidirectional transport across the Caco-2 cell monolayer (Papp, efflux ratio, mass balance); settings: human, Caco-2, pH 7.4
API: value field is a number in ×10⁻⁶ cm/s; no unit string.

O=c1c(-c2ccc(O)c(O)c2)coc2c([C@@H]3O[C@H](CO[C@@H]4OC[C@](O)(CO)[C@H]4O)[C@@H](O)[C@H](O)[C@H]3O)c(O)ccc12 [Compound 3, 3′-hydroxymirificin] has a reported Papp B→A at 90 min, 50 μM of 0.53

O=c1c(-c2ccc(O)cc2)coc2cc(O[C@@H]3O[C@H](CO)[C@@H](O)[C@H](O)[C@H]3O)ccc12 has a reported Papp B→A at 90 min, 50 μM of 0.37

O=C1C=C(c2ccc(O)cc2O)[C@@H](Cc2ccc(O)cc2)O1 has a reported Papp B→A at 90 min, 50 μM of 8.3

O=c1c(-c2ccc(O)cc2)coc2cc(O)cc(O)c12 has a reported Papp B→A at 90 min, 50 μM of 37.7

O=c1c(-c2ccc(O)cc2)coc2c([C@@H]3O[C@H](CO)[C@@H](O)[C@H](O)[C@H]3O)c(O)ccc12 has a reported Papp B→A at 90 min, 50 μM of 0.41
